Numbers sourced from paper PMC11371738.

System: anti-3-CQA mAb
assay-info: mAb-based indirect competitive chemiluminescence enzyme immunoassay (ic-CLEIA)
Format: binding, mouse
test-parameters: ic-CLEIA
measured-quantity: CR (cross-reactivity) = IC50 3-CQA / IC50 analogue x 100% (%)

compound: O=C(/C=C/c1ccc(O)c(O)c1)OC1CC(O)(C(=O)O)CC(O)C1O (stereo not drawn)
reported: 1.81

(A) O=C(/C=C/c1ccc(O)c(O)c1)OC1C(O)CC(O)(C(=O)O)CC1O (stereo not drawn)
(B) O=C(/C=C/c1ccc(O)c(O)c1)OC1CC(O)(C(=O)O)CC(OC(=O)/C=C/c2ccc(O)c(O)c2)C1O (stereo not drawn)
(C) O=C(C=Cc1ccc(O)c(O)c1)OC1CC(O)(C(=O)O)CC(O)C1O (stereo not drawn)
(D) O=C(/C=C/c1ccc(O)c(O)c1)OC1CC(O)(C(=O)O)CC(O)C1OC(=O)/C=C/c1ccc(O)c(O)c1 (stereo not drawn) [3,4-dicaffeoylquinic acid]
(E) O=C(/C=C/c1ccc(O)c(O)c1)OC1CC(O)(C(=O)O)CC(O)C1OC(=O)/C=C/c1ccc(O)c(O)c1 (stereo not drawn) [4,5-dicaffeoylquinic acid]
Lookup: With regard to CR (cross-reactivity) = IC50 3-CQA / IC50 analogue x 100%, arrange the entries in ascending order, please. Please, when replying, give the labels in the order that was requested.
Found: E, A, D, B, C
(E: 0.31%, A: 0.62%, D: 2.10%, B: 10.71%, C: 100.00%)

---

study-target: anti-3-CQA mAb
assay-info: mAb-based indirect competitive chemiluminescence enzyme immunoassay (ic-CLEIA)
Format: binding, mouse
test-parameters: optimized conditions; 3-CQA-OVA coating 2 μg/mL, mAb 1:8000, deionized water pH 7.0
measured-quantity: IC50 (µg/mL)

compound: O=C(/C=C/c1ccc(O)c(O)c1)OC1CC(O)(C(=O)O)CC(O)C1O (stereo not drawn) [5-CQA, 5-caffeoylquinic acid]
study-target: anti-3-CQA mAb
IC50, µg/mL: 0.16444

(A) O=C(/C=C/c1ccc(O)c(O)c1)OC1C(O)CC(O)(C(=O)O)CC1O (stereo not drawn) [4-CQA, 4-caffeoylquinic acid]
(B) O=C(/C=C/c1ccc(O)c(O)c1)OC1CC(O)(C(=O)O)CC(O)C1OC(=O)/C=C/c1ccc(O)c(O)c1 (stereo not drawn) [3,4-dicaffeoylquinic acid]
(C) O=C(/C=C/c1ccc(O)c(O)c1)OC1CC(O)(C(=O)O)CC(OC(=O)/C=C/c2ccc(O)c(O)c2)C1O (stereo not drawn) [3,5-dicaffeoylquinic acid]
(D) O=C(/C=C/c1ccc(O)c(O)c1)OC1CC(O)(C(=O)O)CC(O)C1OC(=O)/C=C/c1ccc(O)c(O)c1 (stereo not drawn) [4,5-dicaffeoylquinic acid]
(E) O=C(C=Cc1ccc(O)c(O)c1)OC1CC(O)(C(=O)O)CC(O)C1O (stereo not drawn) [3-CQA, 3-caffeoylquinic acid]
Lookup: List items by IC50 in falling order. Please, when replying, give the labels in the order that was requested.
Found: D, A, B, C, E
(D: 0.97156 µg/mL, A: 0.48062 µg/mL, B: 0.14173 µg/mL, C: 0.02774 µg/mL, E: 0.00297 µg/mL)
